Tested on: A549
Assay: Cytotoxicity against human A549 cells after 48 hrs by SRB assay
Assay type: functional, cell-based
Details: Homo sapiens, A549, 48 h
observed.property: LC50 (nM)
Kindly answer with a numeric value in nM, unit omitted.

C/C=C1\NC(=O)[C@H](Cc2ccccc2)NC(=O)[C@@H](C(C)C)NC(=O)[C@@H]([C@H](C)CC)NC(=O)[C@H](NC(=O)[C@H](NC(=O)[C@H](CCCN)NC(=O)[C@H]2CCCN2C(=O)[C@H](NC(=O)[C@@H](NC(=O)[C@@H](NC(=O)[C@H](N)C(C)C)[C@@H](C)O)C(C)C)C(C)C)[C@H](C)CC)[C@H](C)OC(=O)[C@H](C(C)C)NC1=O 1980

LC50 lookup needed for `C/C=C1\NC(=O)[C@H](Cc2ccccc2)NC(=O)[C@@H](C(C)C)NC(=O)[C@@H]([C@H](C)CC)NC(=O)[C@H](NC(=O)[C@H](NC(=O)[C@H](CCCN)NC(=O)[C@H]2CCCN2C(=O)[C@H](NC(=O)[C@@H](NC(=O)[C@@H](NC(=O)[C@@H](C)NC(=O)CCCC(C)C)[C@@H](C)O)C(C)C)C(C)C)[C@H](C)CC)[C@H](C)OC(=O)[C@H](C(C)C)NC1=O` , thanks.
1400

====

Test system: DU-145
Assay: Cytotoxicity against human DU145 cells after 48 hrs by SRB assay
Type: functional, cell-based
Conditions: Homo sapiens, DU-145, 48 h
observed.property: pIC50
Note on pIC50: it is the negative log10 of concentration, concentration in mol/L.

Fill in: pIC50 of `C/C=C1\NC(=O)[C@H](Cc2ccccc2)NC(=O)[C@@H](C(C)C)NC(=O)[C@@H]([C@H](C)CC)NC(=O)[C@H](NC(=O)[C@H](NC(=O)[C@@H](NC(=O)[C@H](NC(=O)CCCC(C)C)C(C)C)[C@@H](C)O)[C@H](C)CC)[C@H](C)OC(=O)[C@H](C(C)C)NC1=O` is ___
5.03

====

Test system: DU-145
Experiment: Cytotoxicity against human DU145 cells after 48 hrs by SRB assay
Type: functional, cell-based
Conditions: Homo sapiens, DU-145, 48 h; read-out: LC50 (the source's name)
observed.property: CC50 (µM)
The figure you give is taken to be in µM; do not add the unit.

C/C=C1\NC(=O)[C@H](Cc2ccccc2Cl)NC(=O)[C@@H](C(C)C)NC(=O)[C@@H]([C@H](C)CC)NC(=O)[C@H](NC(=O)[C@H](NC(=O)[C@H](CCCN)NC(=O)[C@H]2CCCN2C(=O)[C@H](NC(=O)[C@@H](NC(=O)[C@@H](NC(=O)[C@H](NC(=O)CCCC(C)C)C(C)C)[C@@H](C)O)C(C)C)C(C)C)[C@H](C)CC)[C@H](C)OC(=O)[C@H](C(C)C)NC1=O 0.67
C/C=C1\NC(=O)[C@H](Cc2ccccc2)NC(=O)[C@@H](C(C)C)NC(=O)[C@@H]([C@H](C)CC)NC(=O)[C@H](NC(=O)[C@H](NC(=O)[C@H](CCCN)NC(=O)[C@H]2CCCN2C(=O)[C@H](NC(=O)[C@@H](NC(=O)[C@@H](NC(=O)[C@H](NC(=O)CCCCC(C)=O)C(C)C)[C@@H](C)O)C(C)C)C(C)C)[C@H](C)CC)[C@H](C)OC(=O)[C@H](C(C)C)NC1=O 1.67

Tell me the measured CC50 of `C/C=C1\NC(=O)[C@H](Cc2ccccc2)NC(=O)[C@@H](C(C)C)NC(=O)[C@@H]([C@H](C)CC)NC(=O)[C@H](NC(=O)[C@H](NC(=O)[C@H](CCCN)NC(=O)[C@H]2CCCN2C(=O)[C@H](NC(=O)[C@@H](NC(=O)[C@@H](NC(=O)[C@H](NC(=O)CCCC(C)C)C(C)C)[C@@H](C)O)C(C)C)C(C)C)[C@H](C)CC)[C@@H](C)OC(=O)[C@H](C(C)C)NC1=O` , please.
10.6

====

System: PANC-1
Assay: Cytotoxicity against human PANC1 cells after 48 hrs by SRB assay
Assay type: functional
Conditions: PANC-1, 48 h
observed.property: TGI

C/C=C1\NC(=O)[C@H](Cc2ccccc2)NC(=O)[C@@H](C(C)C)NC(=O)[C@@H]([C@H](C)CC)NC(=O)[C@H](NC(=O)[C@H](NC(=O)[C@H](CCCN)NC(=O)[C@H]2CCCN2C(=O)[C@H](NC(=O)[C@@H](NC(=O)[C@@H](NC(=O)[C@H](NC(=O)CCCC(C)C)C(C)C)[C@@H](C)O)[C@@H](C)O)C(C)C)[C@H](C)CC)[C@H](C)OC(=O)[C@H](C(C)C)NC1=O 4.56 µM
C/C=C1\NC(=O)[C@H](Cc2ccccc2)NC(=O)[C@@H](C(C)C)NC(=O)[C@@H]([C@H](C)CC)NC(=O)[C@H](NC(=O)[C@H](NC(=O)[C@H](CCCN)NC(=O)[C@H]2CCCN2C(=O)[C@H](NC(=O)[C@@H](NC(=O)[C@@H](NC(=O)[C@H](N)C(C)C)[C@@H](C)O)C(C)C)C(C)C)[C@H](C)CC)[C@H](C)OC(=O)[C@H](C(C)C)NC1=O 5.39 µM

Now look at this one.
Need TGI of `C/C=C1\NC(=O)[C@H](Cc2ccccc2)NC(=O)[C@@H](C(C)C)NC(=O)[C@@H]([C@H](C)CC)NC(=O)[C@H](NC(=O)[C@H](NC(=O)[C@H](CCCN)NC(=O)[C@H]2CCCN2C(=O)[C@H](NC(=O)[C@@H](NC(=O)[C@@H](NC(=O)[C@H](NC(=O)CCCC(C)C)C(C)C)C(C)C)C(C)C)C(C)C)[C@H](C)CC)[C@H](C)OC(=O)[C@H](C(C)C)NC1=O` , thanks.
1.26 µM

====

System: HT-29
Assay: Cytotoxicity against human HT29 cells after 48 hrs by SRB assay
Type: functional, cell-based
Details: Homo sapiens, HT-29, 48 h; read-out: LC50 (the source's name)
observed.property: log10 of CC50 (log10 of the value in µM)
Transform log10 | Measure CC50 | Unit µM

Recorded results for 3 compounds are shown here.
C/C=C1\NC(=O)[C@H](Cc2ccccc2)NC(=O)[C@@H](C(C)C)NC(=O)[C@@H]([C@H](C)CC)NC(=O)[C@H](NC(=O)[C@H](NC(=O)[C@H](CCCN)NC(=O)[C@H]2CCCN2C(=O)[C@H](NC(=O)[C@@H](NC(=O)[C@@H](NC(=O)[C@H](NC(=O)CC(C)C)C(C)C)[C@@H](C)O)C(C)C)C(C)C)[C@H](C)CC)[C@H](C)OC(=O)[C@H](C(C)C)NC1=O 0.50
C/C=C1\NC(=O)[C@H](Cc2ccccc2)NC(=O)[C@@H](C(C)C)NC(=O)[C@@H]([C@H](C)CC)NC(=O)[C@H](NC(=O)[C@H](NC(=O)[C@H](CCCN)NC(=O)[C@H]2CCCN2C(=O)[C@H](NC(=O)[C@@H](NC(=O)[C@@H](NC(=O)[C@H](N)C(C)C)[C@@H](C)O)C(C)C)C(C)C)[C@H](C)CC)[C@H](C)OC(=O)[C@H](C(C)C)NC1=O 0.75
C/C=C1\NC(=O)[C@H](Cc2ccccc2Cl)NC(=O)[C@@H](C(C)C)NC(=O)[C@@H]([C@H](C)CC)NC(=O)[C@H](NC(=O)[C@H](NC(=O)[C@H](CCCN)NC(=O)[C@H]2CCCN2C(=O)[C@H](NC(=O)[C@@H](NC(=O)[C@@H](NC(=O)[C@H](NC(=O)CCCC(C)C)C(C)C)[C@@H](C)O)C(C)C)C(C)C)[C@H](C)CC)[C@H](C)OC(=O)[C@H](C(C)C)NC1=O -0.84

Could you tell me which log10 of CC50 is on file for `C/C=C1\NC(=O)[C@H](Cc2ccccc2)NC(=O)[C@@H](C(C)C)NC(=O)[C@@H]([C@H](C)CC)NC(=O)[C@H](NC(=O)[C@H](NC(=O)[C@H](CCCNC(=O)/C=C/CCC)NC(=O)[C@H]2CCCN2C(=O)[C@H](NC(=O)[C@@H](NC(=O)[C@@H](NC(=O)[C@H](NC(=O)CCCC(C)C)C(C)C)[C@@H](C)O)C(C)C)C(C)C)[C@H](C)CC)[C@H](C)OC(=O)[C@H](C(C)C)NC1=O` ?
-0.57

Follow-up item: `C/C=C1\NC(=O)[C@H](Cc2ccccc2)NC(=O)[C@@H](C(C)C)NC(=O)[C@@H](C(C)C)NC(=O)[C@H](NC(=O)[C@H](NC(=O)[C@H](CCCN)NC(=O)[C@H]2CCCN2C(=O)[C@H](NC(=O)[C@@H](NC(=O)[C@@H](NC(=O)[C@H](NC(=O)CCCC(C)C)C(C)C)[C@@H](C)O)C(C)C)C(C)C)C(C)C)[C@H](C)OC(=O)[C@H](C(C)C)NC1=O`
0.50
